Entry source: the Immune Epitope Database (IEDB)

Measurement target: HLA-A*26:02
Protocol description: IEDB peptide-MHC binding, purified MHC/direct/fluorescence; filed as Kd, often an IC50 or EC50 that approximates it; bounds were set here for any values at or beyond the usual limits of such assays
Experimental conditions: source organism: Coxiella burnetii Q321
Readout label: Kd

Recorded Kd for VFFKQWFEK with HLA-A*26:02, please? ≥ 20 µM

###

Measurement target: HLA-A*31:01
Protocol description: IEDB peptide-MHC binding, purified MHC/competitive/fluorescence; bounds were set here for any values at or beyond the usual limits of such assays
Experimental conditions: source organism: Rattus norvegicus
Readout label: IC50

Dear colleague, I am looking for the recorded IC50 of the following sequence: SLLERGQQLGV ≥ 20 µM

###

Measurement target: HLA-A*24:03
Protocol description: IEDB peptide-MHC binding, purified MHC/direct/fluorescence; filed as Kd, often an IC50 or EC50 that approximates it; bounds were set here for any values at or beyond the usual limits of such assays
Experimental conditions: source organism: Marburg virus - Musoke, Kenya, 1980
Readout label: pKd
Scale: negative log10 of molar concentration, which is what pKd denotes.

Recorded pKd for YLAPSYRNF with HLA-A*24:03, please? 7.78

###

For each record, write down the corresponding pKd.
Measurement target: HLA-A*02:17
Protocol description: IEDB peptide-MHC binding, purified MHC/competitive/radioactivity; filed as Kd, often an IC50 or EC50 that approximates it; bounds were set here for any values at or beyond the usual limits of such assays
Experimental conditions: source organism: Dengue virus 1 Singapore/S275/1990
Scale: negative log10 of molar concentration, which is what pKd denotes.

Dear colleague, I am looking for the recorded pKd of the following sequence: MLMTGTLAV 6.12

Follow-up item: MLLMLLPTA 6.79

Follow-up item: TLYAVATTV 5.79

Follow-up item: MLMTGTLAVF 7.49

###

Measurement target: HLA-B*57:01
Protocol description: IEDB peptide-MHC binding, purified MHC/competitive/fluorescence; filed as Kd, often an IC50 or EC50 that approximates it; bounds were set here for any values at or beyond the usual limits of such assays
Experimental conditions: source organism: Escherichia coli O139:H28 str. E24377A
Readout label: pKd
Scale: negative log10 of molar concentration, which is what pKd denotes.

Recorded pKd for WSILRQRCW with HLA-B*57:01, please? 6.97

###

Measurement target: HLA-A*30:02
Protocol description: IEDB peptide-MHC binding, purified MHC/competitive/radioactivity; filed as Kd, often an IC50 or EC50 that approximates it; bounds were set here for any values at or beyond the usual limits of such assays
Experimental conditions: source organism: Mammarenavirus brazilense
For each record, write down the corresponding Kd.
Give the value, in units of nM, as a plain number.

Recorded Kd for EALRGFLLY with HLA-A*30:02, please? 2270

Follow-up item: IPDVIELAY 2760

###

Measurement target: HLA-A*02:01
Protocol description: IEDB peptide-MHC binding, purified MHC/competitive/fluorescence; filed as Kd, often an IC50 or EC50 that approximates it; bounds were set here for any values at or beyond the usual limits of such assays
Experimental conditions: source organism: Plasmodium yoelii yoelii
Readout label: pKd
Scale: negative log10 of molar concentration, which is what pKd denotes.

Recorded pKd for DLKPDNILL with HLA-A*02:01, please? 6.81

###

Measurement target: HLA-A*02:01
Protocol description: IEDB peptide-MHC binding, purified MHC/direct/fluorescence; filed as Kd, often an IC50 or EC50 that approximates it; bounds were set here for any values at or beyond the usual limits of such assays
Experimental conditions: source organism: Influenza A virus (A/G.H/HK/793.1/02 (H5N1))
pKd: −log10 of the molar value.
Readout label: pKd

Dear colleague, I am looking for the recorded pKd of the following sequence: RRKTNLYGF ≤ 4.70

###

Measurement target: HLA-B*57:01
Protocol description: IEDB peptide-MHC binding, purified MHC/direct/fluorescence; filed as Kd, often an IC50 or EC50 that approximates it; bounds were set here for any values at or beyond the usual limits of such assays
Experimental conditions: source organism: Camelpox virus M-96
Readout label: Kd

Dear colleague, I am looking for the recorded Kd of the following sequence: IFLIITKVF ≥ 20 µM

###

For each record, write down the corresponding Kd.
Measurement target: HLA-A*03:01
Protocol description: IEDB peptide-MHC binding, purified MHC/competitive/radioactivity; filed as Kd, often an IC50 or EC50 that approximates it; bounds were set here for any values at or beyond the usual limits of such assays
Experimental conditions: source organism: Mammarenavirus whitewaterense

Recorded Kd for QKCGELLEFH with HLA-A*03:01, please? ≥ 70 µM

Follow-up item: RSCSYKIGHH 3.9 µM

###

For each record, write down the corresponding Kd.
Measurement target: HLA-A*31:01
Protocol description: IEDB peptide-MHC binding, purified MHC/competitive/radioactivity; filed as Kd, often an IC50 or EC50 that approximates it; bounds were set here for any values at or beyond the usual limits of such assays
Experimental conditions: source organism: Vaccinia virus Copenhagen
Give the value, in units of nM, as a plain number.

Dear colleague, I am looking for the recorded Kd of the following sequence: MLIYSMWGK 459

Follow-up item: NTFPNITLK 595

###

Measurement target: HLA-A*02:01
Protocol description: IEDB peptide-MHC binding, purified MHC/competitive/fluorescence; filed as Kd, often an IC50 or EC50 that approximates it; bounds were set here for any values at or beyond the usual limits of such assays
Experimental conditions: source organism: Plasmodium falciparum
Readout label: pKd
Scale: negative log10 of molar concentration, which is what pKd denotes.

Dear colleague, I am looking for the recorded pKd of the following sequence: LLMDCSGSI 8.89

###

Measurement target: HLA-A*26:01
Protocol description: IEDB peptide-MHC binding, purified MHC/direct/fluorescence; filed as Kd, often an IC50 or EC50 that approximates it; bounds were set here for any values at or beyond the usual limits of such assays
Experimental conditions: source organism: Escherichia coli O157:H7 str. EC869
Readout label: Kd
# output: number + unit

Dear colleague, I am looking for the recorded Kd of the following sequence: ETIGLVRAL 4 nM

###

Measurement target: HLA-A*26:01
Protocol description: IEDB peptide-MHC binding, purified MHC/competitive/radioactivity; filed as Kd, often an IC50 or EC50 that approximates it; bounds were set here for any values at or beyond the usual limits of such assays
Experimental conditions: source organism: Dengue virus 3 Martinique/1243/1999
pKd: −log10 of the molar value.
Readout label: pKd

Dear colleague, I am looking for the recorded pKd of the following sequence: LTMKNKAWM ≤ 4.34

###

Measurement target: HLA-A*68:02
Protocol description: IEDB peptide-MHC binding, purified MHC/competitive/fluorescence; filed as Kd, often an IC50 or EC50 that approximates it; bounds were set here for any values at or beyond the usual limits of such assays
Experimental conditions: source organism: Burkholderia pseudomallei 668
pKd: −log10 of the molar value.
Readout label: pKd

Dear colleague, I am looking for the recorded pKd of the following sequence: ILFDRLPIA ≤ 4.70

###

Measurement target: HLA-B*35:01
Protocol description: IEDB peptide-MHC binding, purified MHC/direct/fluorescence; filed as Kd, often an IC50 or EC50 that approximates it; bounds were set here for any values at or beyond the usual limits of such assays
Experimental conditions: source organism: Pseudomonas aeruginosa
Readout label: Kd (nM)
Give the value, in units of nM, as a plain number.

Dear colleague, I am looking for the recorded Kd of the following sequence: FSDARLAKL 797

###

Measurement target: HLA-B*15:17
Protocol description: IEDB peptide-MHC binding, purified MHC/direct/fluorescence; filed as Kd, often an IC50 or EC50 that approximates it; bounds were set here for any values at or beyond the usual limits of such assays
Experimental conditions: source organism: Bacillus anthracis
Readout label: pKd
Scale: negative log10 of molar concentration, which is what pKd denotes.

Dear colleague, I am looking for the recorded pKd of the following sequence: VTECKLIYY 7.46

###

For each record, write down the corresponding Kd.
Measurement target: HLA-A*02:02
Protocol description: IEDB peptide-MHC binding, purified MHC/competitive/radioactivity; filed as Kd, often an IC50 or EC50 that approximates it; bounds were set here for any values at or beyond the usual limits of such assays
Experimental conditions: source organism: Vaccinia virus WR

Dear colleague, I am looking for the recorded Kd of the following sequence: TAFFNTCKPT ≥ 31.6 µM

Follow-up item: NTKSDNIINI ≥ 30.8 µM

Follow-up item: TLNHVLALK ≥ 77.8 µM

Follow-up item: LPRPDTRHL ≥ 77.8 µM

Follow-up item: TTENAAYQV ≥ 77.8 µM

Follow-up item: QMYRKFSRCT ≥ 25.7 µM

###

Measurement target: HLA-B*40:01
Protocol description: IEDB peptide-MHC binding, purified MHC/competitive/radioactivity; filed as Kd, often an IC50 or EC50 that approximates it; bounds were set here for any values at or beyond the usual limits of such assays
Experimental conditions: source organism: SARS coronavirus Tor2
pKd: −log10 of the molar value.
I would appreciate it if you labelled entries Criterion met when pKd is 6 or higher, otherwise Criterion not met.

Test whether the sequence IDYRHYSASF records pKd of 6 or higher. Criterion not met

Follow-up item: SEFDRDAAM Criterion met

Follow-up item: EEILGTVSW Criterion not met

Follow-up item: YEAMYTPHT Criterion not met
